Target: T1, human TL1A extracellular domain with N-terminal HIS and FLAG tag (human, UniProt O95150 72-251)
T1 construct: the whole entry is named; also called TNFSF15
T1 sequence: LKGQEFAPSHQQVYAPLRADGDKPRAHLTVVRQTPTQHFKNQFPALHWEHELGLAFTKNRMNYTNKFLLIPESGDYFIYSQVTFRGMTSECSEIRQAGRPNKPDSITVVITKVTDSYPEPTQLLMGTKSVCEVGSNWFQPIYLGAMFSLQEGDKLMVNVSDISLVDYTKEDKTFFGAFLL
Experiment: SPR Run 9, antibody on Protein A, TL1A 5 ug/mL, timepoint 44
PROPERTY: TL1A Binding Level (Early) (RU)
Give a bare numeral; the unit RU is implied.

| BINDER | TL1A Binding Level (Early) / RU |
| --- | --- |
| 320-600 (antibody, human IgG1, name in Kabat numbering, V domains shown, full-length human IgG1, lambda) VH: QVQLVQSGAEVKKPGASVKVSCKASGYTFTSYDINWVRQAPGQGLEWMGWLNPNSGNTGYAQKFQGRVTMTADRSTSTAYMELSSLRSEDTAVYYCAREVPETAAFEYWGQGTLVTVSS VL: QSVLTQPPSVSGAPGQRVTISCTSSSSDIGAALGVHWYQQLPGTAPKLLIEGYYNRPSGVPDRFSGSKSGTSASLTITGLLPEDEGDYYCQSFDGTLSALFGGGTKLTVLG | 111 |

Input: So what's the measured TL1A Binding Level (Early) for this one? 320-605 (antibody, human IgG1, name in Kabat numbering, V domains shown, full-length human IgG1, lambda) VH: QVQLVQSGAEVKKPGASVKVSCKASGYTFTSYDINWVRQAPGQGLEWMGWLNPNSGYTGYAQKFQGRVTMTADRSTSTAYMELSSLRSEDTAVYYCAREVPETAAFEYWGQGTLVTVSS VL: QSVLTQPPSVSGAPGQRVTISCTSSSSDIGAALGVHWYQQLPGTAPKLLIEGYYNRPSGVPDRFSGSKSGTSASLTITGLLPEDEGDYYCQSFDGTLSALFGGGTKLTVLG
Output: 125

Input: Same again, this time with 320-599 (antibody, human IgG1, name in Kabat numbering, V domains shown, full-length human IgG1, lambda) VH: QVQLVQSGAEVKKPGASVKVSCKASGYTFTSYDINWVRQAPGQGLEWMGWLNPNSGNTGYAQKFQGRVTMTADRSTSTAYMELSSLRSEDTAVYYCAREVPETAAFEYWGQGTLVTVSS VL: QSVLTQPPSVSGAPGQRVTISCTSSSSDIGAGSGVHWYQQLPGTAPKLLIEGYYNRPSGVPDRFSGSKSGTSASLTITGLLPEDEGDYYCQSFDGTLSALFGGGTKLTVLG
Output: 113

Sourced from patent US20170081400A1
